Quick reference: EC50 of the listed items.
Target: T1, human MSLN full-length protein (NCBI: AAH09272.1) expressed on HEK293T-hMSLN-B8 cells (human, UniProt Q13421 296-598)
T1 construct: Whole encoded precursor
T1 sequence (Q13421 other isoform, or with tags, fused parts or gaps limits assumed): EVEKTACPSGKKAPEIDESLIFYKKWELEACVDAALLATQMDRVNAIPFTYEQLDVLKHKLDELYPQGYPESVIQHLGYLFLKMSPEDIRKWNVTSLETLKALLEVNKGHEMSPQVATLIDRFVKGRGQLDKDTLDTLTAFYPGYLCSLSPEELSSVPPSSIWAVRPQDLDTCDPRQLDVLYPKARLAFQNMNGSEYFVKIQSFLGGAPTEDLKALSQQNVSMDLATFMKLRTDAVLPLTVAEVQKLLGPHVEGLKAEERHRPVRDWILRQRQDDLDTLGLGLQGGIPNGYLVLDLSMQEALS
Assay: FACS on HEK293T-hMSLN-B8 cells

- BINDER: "S009-F2.38.12 (antibody, human IgG1, kappa, V domains shown, human-murine chimeric antibody, human IgG1/kappa constant regions) VH: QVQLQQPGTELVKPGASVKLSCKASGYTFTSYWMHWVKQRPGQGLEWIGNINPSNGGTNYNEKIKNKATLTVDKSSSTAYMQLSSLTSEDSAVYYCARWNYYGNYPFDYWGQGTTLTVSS VL: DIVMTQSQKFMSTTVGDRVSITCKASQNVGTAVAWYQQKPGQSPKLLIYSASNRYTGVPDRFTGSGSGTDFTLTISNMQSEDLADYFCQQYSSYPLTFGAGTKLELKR"
  READOUT NAME: "EC50"
  RESULT: "~0.82 nM"

API: the following record is the query input.
Could you share which EC50 value was measured for S009-F2.47.1 (antibody, human IgG1, kappa, V domains shown, human-murine chimeric antibody, human IgG1/kappa constant regions) VH: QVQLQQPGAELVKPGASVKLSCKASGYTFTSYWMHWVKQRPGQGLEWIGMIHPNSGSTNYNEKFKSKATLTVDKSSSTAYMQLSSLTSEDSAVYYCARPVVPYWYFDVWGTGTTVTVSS VL: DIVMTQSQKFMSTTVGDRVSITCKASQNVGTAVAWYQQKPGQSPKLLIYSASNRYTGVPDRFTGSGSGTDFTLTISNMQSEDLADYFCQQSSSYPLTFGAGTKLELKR ?
~0.82 nM
